These data points were gathered from ChEMBL document CHEMBL1125301.

- target: Serotonin 2 (5-HT2) receptor (Rattus norvegicus, UniProt P30994+P08909+P14842)
- assay_summary: Compound was evaluated for binding affinity towards 5-hydroxytryptamine 2 receptor in rat anterior cortex using [125I]DOI as radioligand
value_kind: IC50 (nM)
Return type: number; implicit unit nM.

Here is how some compounds turned out for IC50.
smiles_structure | value_kind | reading
CN(C)CCc1c[nH]c2cc3c(cc12)OCCC3 | IC50 | 920
Cn1cc(CCN)c2c3c(ccc21)OCCC3 | IC50 | 14
CN(C)CCc1cn(C)c2ccc3c(c12)CCCO3 | IC50 | 81

Please find the next compound below.
Which IC50 is reported for this compound? NCCc1c[nH]c2ccc3c(c12)CCCO3
14
